# System: P388 leukemia ip, CD2F1 mice, survival T/C
# ASSAY_PROCEDURE: NCI In Vivo Anticancer Drug Screen. Data for tumor model P388 Leukemia (intraperitoneal) in CD2F1 (CDF1) mice
# ASSAY_CONDITIONS: endpoint: median survival time; dose: 25.0 mg/kg/injection; schedule: Q01DX009 (ip); vehicle: saline with Tween-80; higher = longer survival
# Protocol: The antitumor activity of compounds was measured in mice bearing transplantable tumors. Survival or tumor size were measured and the results are expressed as the measurement made in the treated group (T) divided by the measurement made in the vehicle treated control group (C). The tumor model used in this assay is P388 Leukemia (intraperitoneal) in CD2F1 (CDF1) mice
Inconclusive results and toxic doses are left out.

| COMPOUND | T/C |
| --- | --- |
| CCCCOCN(CCCc1ccccc1)COCCCC | 102 % of control |
| O=C(SCc1ccccc1)c1cccnc1 | 105 % of control |
| CCN(CC)CCC(=O)c1ccccc1 | 108 % of control |
| O=[N+]([O-])c1ccc(-c2nc(/C=N/N3CCS(=O)(=O)CC3)cs2)o1 | 99 % of control |
| COc1ccc(CSc2ncnc3nc[nH]c23)cc1 | 91 % of control |
| O=[Se]([O][Sn]([O][Se](=O)c1ccccc1)([O][Se](=O)c1ccccc1)[O][Se](=O)c1ccccc1)c1ccccc1 (stereo not drawn) | 103 % of control |
| C/C=C1\CNC2Cc3c([nH]c4ccccc34)C(c3c(OC)ccc4c5c([nH]c34)C3(C(=O)OC)CC4CC(CC)C3N(CC5)C4)CC1C2C(=O)OC (stereo not drawn) | 90 % of control |
| CC(=O)Nc1cscc1NC(C)=O | 101 % of control |
| O=C(CCSSCCC(=O)ON1C(=O)CCC1=O)ON1C(=O)CCC1=O | 112 % of control |
| O=[N+]([O-])c1cccc2nsnc12 | 94 % of control |
| Nc1cc(NC=O)ncn1 | 102 % of control |
| NC(=O)c1nnn(Cc2ccccc2)c1N | 119 % of control |
| Cc1cc(C)c(N)c(Br)c1 | 100 % of control |
| CNC(=S)N/N=C/c1ccccc1 | 110 % of control |
| COc1cc(O)c(C(C)=O)c(O)c1 | 102 % of control |
| Cc1cc(N(c2ccc([N+](=O)[O-])cc2)S(C)(=O)=O)c(C)cc1C=O | 101 % of control |
| CCC1(CC)COC(C)(C(=O)O)OC1 | 102 % of control |
| CCCC(OC(C)=O)C(C)[N+](=O)[O-] (stereo not drawn) | 100 % of control |
| CN1CCCC2C(c3ccccc3)C(C3=NCCCC3)C(c3ccccc3)CC21 (stereo not drawn) | 100 % of control |
| O=C(O)c1ccc(=O)oc1 | 94 % of control |
| COC(=O)C(C)c1cc2ccccc2[nH]1 (stereo not drawn) | 100 % of control |
| CSC1(SC)CCN(C)C1=O | 90 % of control |
| CC(C)c1ccc(O)c(O)c1 | 113 % of control |
| Clc1cc(-c2csc(Cl)c2)cs1 | 97 % of control |
| CC1(O)C(c2ccccc2)=C(c2ccccc2)C2(c3ccccc3)Oc3c(Cl)c(Cl)c(Cl)c(Cl)c3OC12c1ccccc1 (stereo not drawn) | 94 % of control |
| CC(C)CCC1(CCBr)C(=O)NC(=Nc2ccccc2)NC1=O (stereo not drawn) | 96 % of control |
| O=C1OCC23CC(=O)C(O)(c4oc(CO)cc(=O)c4O)C(CC12)O3 (stereo not drawn) | 97 % of control |
| CSCc1cccc(Cl)c1N | 102 % of control |
